Assay: physchem
Format: physicochemical
Details: organic solvent or mixture
Measured Property: solubility

Value of solubility reported for the compound O=C1CCC(N2Cc3cc(CNC(=O)C(F)(F)c4ccc(Cl)cc4)ccc3C2=O)C(=O)N1 (single isomer, unassigned) [Form C] is < 166 mg/mL

###

Assay: physchem
Conditions: aqueous buffer
Measured Property: solubility

Value of solubility reported for the compound O=C1CCC(N2Cc3cc(CNC(=O)C(F)(F)c4ccc(Cl)cc4)ccc3C2=O)C(=O)N1 (stereo not shown) is ≤ 1 µg/mL
